// provenance: patent US20240343704A1

Measured IC50, listed per entry.
target.or.system: Recombinant (1-346) HPK1 (h) (Homo sapiens, UniProt Q92918)
Construct: Recombinant (1-346) HPK1 (h) is incubated with 8 mM MOPS pH 7.0
Sequence (Q92918 1-346): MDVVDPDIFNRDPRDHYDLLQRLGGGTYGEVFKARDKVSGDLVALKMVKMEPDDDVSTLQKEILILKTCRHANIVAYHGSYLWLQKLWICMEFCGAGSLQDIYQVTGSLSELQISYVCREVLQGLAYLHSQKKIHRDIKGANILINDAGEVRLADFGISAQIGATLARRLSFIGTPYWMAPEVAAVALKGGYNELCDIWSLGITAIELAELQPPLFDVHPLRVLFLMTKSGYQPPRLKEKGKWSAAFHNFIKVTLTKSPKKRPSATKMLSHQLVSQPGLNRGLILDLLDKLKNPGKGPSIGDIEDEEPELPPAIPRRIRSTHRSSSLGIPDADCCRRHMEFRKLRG
method.description: HPK1 Human STE Kinase Enzymatic Radiometric Assay
Assay type: biochemical
protocol.conditions: read-out: HPK1 IC50 nM Range*
Structures can show the parent of a compound that is named as a salt.
endpoint.label: IC50

# molecule, observed.measurement
rows = [
    ("CN1CCc2cc(-c3cc(-c4ccc5c(c4)CCNC5=O)c(N)nc3F)ccc21 [I-253]", "11 to 100 nM"),
    ("Nc1nc(F)c(-c2ccc([C@]34C[C@H]3CN(CC3CC3)C4)cc2)cc1-c1cc(F)c2c(c1)CCNC2=O [I-320, formate]", "0.1 to 10 nM"),
    ("Cc1[nH]c(=O)c2ccc(-c3cc(-c4ccc(N5CCN(C(C)C)CC5)cc4)c(F)nc3N)cc2c1F [I-381]", "101 to 1000 nM"),
]
